# Target under test: ERα (Homo sapiens)
# Sequence (P03372 301-553): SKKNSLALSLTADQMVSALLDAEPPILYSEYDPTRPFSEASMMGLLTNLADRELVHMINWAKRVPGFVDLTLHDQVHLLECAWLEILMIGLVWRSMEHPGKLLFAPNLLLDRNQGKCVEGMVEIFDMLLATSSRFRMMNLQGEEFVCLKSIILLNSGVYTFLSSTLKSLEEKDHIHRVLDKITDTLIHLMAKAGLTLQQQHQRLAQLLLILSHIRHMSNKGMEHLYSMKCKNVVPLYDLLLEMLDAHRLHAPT
# Test name: Yeast two-hybrid system-based assay (ERα LBD/SRC1, α-galactosidase), agonist and antagonist mode
# Assay type: cell-based
# Assay setup: 10 μM, antagonist assay with 1 nM E2
Readout label: Inhibitive ratio % (10 μM), ERα (%)
# output: bare number, implied unit %

Task: Name the recorded Inhibitive ratio % (10 μM), ERα of the item CCC(C)n1ncn(-c2ccc(N3CCN(c4ccc(OCC5COC(Cn6cncn6)(c6ccc(Cl)cc6Cl)O5)cc4)CC3)cc2)c1=O (centres unmarked) in your answer.
Output: 8.19

Task: Name the recorded Inhibitive ratio % (10 μM), ERα of the item CN(C)C(=O)C(CCN1CCC(O)(c2ccc(Cl)cc2)CC1)(c1ccccc1)c1ccccc1 [Loperamide] in your answer.
Output: 6.18

Task: Name the recorded Inhibitive ratio % (10 μM), ERα of the item `CN/C(=N/CCSCc1nc[nH]c1C)NC#N` in your answer.
Output: 2.4

Task: Name the recorded Inhibitive ratio % (10 μM), ERα of the item `CS(=O)(=O)CCNCc1ccc(-c2ccc3ncnc(Nc4ccc(OCc5cccc(F)c5)c(Cl)c4)c3c2)o1` in your answer.
Output: 14.01

Task: Name the recorded Inhibitive ratio % (10 μM), ERα of the item COC(=O)C1=C(C)NC(C)=C(C(=O)OCCN(C)Cc2ccccc2)C1c1cccc([N+](=O)[O-])c1 (centres unmarked) in your answer.
Output: 15.21

Task: Name the recorded Inhibitive ratio % (10 μM), ERα of the item `CC#C[C@]1(O)CC[C@H]2[C@@H]3CCC4=CC(=O)CCC4=C3[C@@H](c3ccc(N(C)C)cc3)C[C@@]21C` in your answer.
Output: 0

Task: Name the recorded Inhibitive ratio % (10 μM), ERα of the item O=c1[nH]c2ccccc2n1C1CCN(CCCC(c2ccc(F)cc2)c2ccc(F)cc2)CC1 [Pimozide] in your answer.
Output: 4.58

Task: Name the recorded Inhibitive ratio % (10 μM), ERα of the item N[C@@H]1C[C@H]1c1ccccc1 (racemic) in your answer.
Output: 4.3

Hello, the source for this data is paper PMC3349722, in case you need it.
